Where do these numbers come from? They come from ChEMBL document CHEMBL1255453.

- target-or-test-system: MecA (Staphylococcus aureus, UniProt Q7DHH4)
- Sequence (Q7DHH4 whole entry): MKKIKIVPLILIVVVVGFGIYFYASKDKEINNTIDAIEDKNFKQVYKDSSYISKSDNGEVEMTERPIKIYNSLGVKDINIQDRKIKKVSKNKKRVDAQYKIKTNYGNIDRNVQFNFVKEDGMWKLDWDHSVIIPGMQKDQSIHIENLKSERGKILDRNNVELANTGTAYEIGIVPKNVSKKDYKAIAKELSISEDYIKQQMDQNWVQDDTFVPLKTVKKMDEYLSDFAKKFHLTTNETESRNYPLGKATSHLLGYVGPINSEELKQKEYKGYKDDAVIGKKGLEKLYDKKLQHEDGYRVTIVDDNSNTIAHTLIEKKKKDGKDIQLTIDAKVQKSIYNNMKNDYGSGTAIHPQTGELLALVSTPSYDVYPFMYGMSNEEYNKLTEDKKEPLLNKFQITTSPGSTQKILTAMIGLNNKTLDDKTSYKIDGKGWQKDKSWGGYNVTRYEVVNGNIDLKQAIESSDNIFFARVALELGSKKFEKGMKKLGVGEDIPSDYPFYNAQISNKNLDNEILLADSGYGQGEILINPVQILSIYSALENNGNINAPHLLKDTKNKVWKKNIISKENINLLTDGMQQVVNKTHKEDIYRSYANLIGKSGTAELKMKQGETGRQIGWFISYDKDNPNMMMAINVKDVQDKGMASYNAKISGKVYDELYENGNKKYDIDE
- protocol-text: Binding affinity to methicillin-, vancomycin-resistant, beta-lactamase-positive Staphylococcus aureus 510 PBP2a by competitive binding assay
So I've got a bunch of compounds here, and I need their IC50 values.
Please state the figure in µM; there is no need to write the unit.

Record CO/N=C(\C(=O)N[C@@H]1C(=O)N2C(C(=O)O)=C(COC(C)=O)CS[C@H]12)c1csc(N)n1 . Reported IC50: 2.2

Record CC1(C)S[C@@H]2[C@H](NC(=O)Cc3ccccc3)C(=O)N2[C@H]1C(=O)O . Reported IC50: 191

Record CO/N=C(\C(=O)N[C@@H]1C(=O)N2C(C(=O)O)=C(CSc3nc(=O)c(O)nn3C)CS[C@H]12)c1csc(N)n1 . Reported IC50: 1.8

====

- target-or-test-system: Penicillin-binding protein 2x (Streptococcus pneumoniae serotype 4 (strain ATCC BAA-334 / TIGR4))
- Sequence (P14677 whole entry): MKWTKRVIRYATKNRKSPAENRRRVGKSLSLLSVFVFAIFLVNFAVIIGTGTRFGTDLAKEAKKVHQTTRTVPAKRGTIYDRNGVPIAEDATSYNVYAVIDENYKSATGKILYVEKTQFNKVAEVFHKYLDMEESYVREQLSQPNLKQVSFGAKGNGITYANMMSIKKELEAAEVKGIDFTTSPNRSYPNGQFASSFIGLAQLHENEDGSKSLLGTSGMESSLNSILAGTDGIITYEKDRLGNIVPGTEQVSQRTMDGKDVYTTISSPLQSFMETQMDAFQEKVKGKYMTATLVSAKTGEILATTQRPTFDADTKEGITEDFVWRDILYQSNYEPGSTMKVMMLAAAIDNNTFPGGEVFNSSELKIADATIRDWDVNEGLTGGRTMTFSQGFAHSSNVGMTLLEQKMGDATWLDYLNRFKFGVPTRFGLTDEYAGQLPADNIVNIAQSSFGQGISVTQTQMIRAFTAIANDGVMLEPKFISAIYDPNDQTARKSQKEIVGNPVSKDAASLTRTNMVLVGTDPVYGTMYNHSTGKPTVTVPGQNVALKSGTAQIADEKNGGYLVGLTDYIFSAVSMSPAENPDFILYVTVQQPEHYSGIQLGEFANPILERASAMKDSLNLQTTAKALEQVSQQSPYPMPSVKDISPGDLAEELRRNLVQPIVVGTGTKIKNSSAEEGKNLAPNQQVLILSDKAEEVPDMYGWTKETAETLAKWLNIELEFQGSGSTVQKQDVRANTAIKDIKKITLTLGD
- protocol-text: Binding affinity to against penicillin-susceptible Streptococcus pneumoniae 1076 PBP2X by competitive binding assay
So I've got a bunch of compounds here, and I need their pIC50 values.
// pIC50 is dimensionless: -log10 of concentration (M)

Record CO/N=C(\C(=O)N[C@@H]1C(=O)N2C(C(=O)O)=C(COC(C)=O)CS[C@H]12)c1csc(N)n1 [CEFOTAXIME] . Reported pIC50: 6.26

Record CO/N=C(\C(=O)N[C@@H]1C(=O)N2C(C(=O)O)=C(CSc3nc(=O)c(O)nn3C)CS[C@H]12)c1csc(N)n1 [CEFTRIAXONE] . Reported pIC50: 6.74
